# Target or test system: UGT2B7 (Homo sapiens, UniProt P16662)
# Sequence (P16662 24-529): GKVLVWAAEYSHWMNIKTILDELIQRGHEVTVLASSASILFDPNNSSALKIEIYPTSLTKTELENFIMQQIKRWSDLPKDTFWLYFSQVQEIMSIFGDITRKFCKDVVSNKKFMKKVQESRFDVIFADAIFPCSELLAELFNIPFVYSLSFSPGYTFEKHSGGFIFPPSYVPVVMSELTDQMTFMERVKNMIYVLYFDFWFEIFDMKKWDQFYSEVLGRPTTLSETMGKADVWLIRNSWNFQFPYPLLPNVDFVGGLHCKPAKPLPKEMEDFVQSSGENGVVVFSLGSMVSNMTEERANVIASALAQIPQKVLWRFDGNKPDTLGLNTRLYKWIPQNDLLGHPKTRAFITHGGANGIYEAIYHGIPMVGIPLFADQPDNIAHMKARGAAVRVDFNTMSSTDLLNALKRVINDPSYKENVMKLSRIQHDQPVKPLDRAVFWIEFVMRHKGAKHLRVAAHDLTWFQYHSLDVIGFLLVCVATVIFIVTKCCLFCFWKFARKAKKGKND
# Protocol text: Glucuronidation assay, UGT2B7-over-expressing HEK293 cell homogenate
# Assay type: in vitro ADME
Parameter measured: Km (µM)
Give the quantity in µM, number only.

Looking up O=C(O)[C@H]1O[C@@H](O[C@H]2c3cc4ccc5cccc6c7ccccc7c(c3C=C[C@@H]2O)c4c56)[C@H](O)[C@@H](O)[C@@H]1O (relative stereo) [(+)-DB[a,l]P-11-Gluc, DB[a,l]P-(+)-trans-11-Gluc,12-ol] , I see its Km listed as 175

###

# Target or test system: UGT1A7 (Homo sapiens)
# Sequence (Q9HAW7 26-530): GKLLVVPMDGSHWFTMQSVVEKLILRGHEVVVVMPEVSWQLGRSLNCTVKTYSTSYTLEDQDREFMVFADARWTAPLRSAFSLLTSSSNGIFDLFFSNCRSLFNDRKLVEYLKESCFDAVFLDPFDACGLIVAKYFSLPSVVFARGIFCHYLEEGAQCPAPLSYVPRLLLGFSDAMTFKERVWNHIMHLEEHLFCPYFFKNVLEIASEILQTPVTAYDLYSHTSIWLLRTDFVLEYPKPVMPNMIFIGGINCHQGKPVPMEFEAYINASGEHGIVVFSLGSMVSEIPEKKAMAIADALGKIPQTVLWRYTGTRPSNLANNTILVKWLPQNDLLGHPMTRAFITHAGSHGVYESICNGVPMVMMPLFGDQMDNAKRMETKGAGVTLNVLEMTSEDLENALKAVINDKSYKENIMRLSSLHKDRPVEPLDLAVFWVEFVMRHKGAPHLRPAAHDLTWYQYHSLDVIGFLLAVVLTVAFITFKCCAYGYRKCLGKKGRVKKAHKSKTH
# Protocol text: Glucuronidation assay, UGT1A7-over-expressing HEK293 cell homogenate
# Format: in vitro ADME
Parameter measured: Km (µM)
Write the value in µM as a bare number.

Looking up O=C(O)[C@H]1O[C@@H](O[C@H]2c3cc4ccc5cccc6c7ccccc7c(c3C=C[C@@H]2O)c4c56)[C@H](O)[C@@H](O)[C@@H]1O (relative stereo) [(+)-DB[a,l]P-11-Gluc, DB[a,l]P-(+)-trans-11-Gluc,12-ol] , I found its Km recorded as 43

###

# Target or test system: UGT1A8 (Homo sapiens, UniProt Q9HAW9)
# Sequence (Q9HAW9 26-530): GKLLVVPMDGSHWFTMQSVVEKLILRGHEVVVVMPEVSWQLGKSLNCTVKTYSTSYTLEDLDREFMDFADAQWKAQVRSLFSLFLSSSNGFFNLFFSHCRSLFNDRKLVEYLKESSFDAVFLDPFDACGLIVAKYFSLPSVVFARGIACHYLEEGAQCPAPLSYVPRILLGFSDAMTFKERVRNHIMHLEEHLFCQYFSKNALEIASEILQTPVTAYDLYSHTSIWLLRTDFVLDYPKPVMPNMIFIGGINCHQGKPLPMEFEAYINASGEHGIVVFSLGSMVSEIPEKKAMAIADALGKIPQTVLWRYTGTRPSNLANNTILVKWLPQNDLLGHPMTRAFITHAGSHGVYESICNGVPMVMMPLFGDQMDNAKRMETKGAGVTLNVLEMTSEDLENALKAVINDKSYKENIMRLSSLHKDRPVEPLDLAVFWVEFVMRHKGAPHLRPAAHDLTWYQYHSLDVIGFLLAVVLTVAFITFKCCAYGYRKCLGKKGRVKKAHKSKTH
# Protocol text: Glucuronidation assay, UGT1A8-over-expressing HEK293 cell homogenate
# Format: in vitro ADME
Parameter measured: Km (µM)
Give just the number in µM; leave the unit off.

The compound O=C(O)[C@H]1O[C@@H](O[C@H]2c3cc4ccc5cccc6c7ccccc7c(c3C=C[C@@H]2O)c4c56)[C@H](O)[C@@H](O)[C@@H]1O (relative stereo) [(+)-DB[a,l]P-11-Gluc, DB[a,l]P-(+)-trans-11-Gluc,12-ol] showed Km equal to 194

Values compiled from paper PMC3177992.
